Procedure text: soluble on expression in E. coli; label from the status in PepcDB or PDB records

{"Sequence text": "MICPRCADAHIELMATSPVKGVWTVYQCQHCLYTWRDTEPLRRTSREHYPQAFRMTQKDIDDAPMVPSIPPLLAEDKR", "soluble on expression in E. coli": "not soluble"}
{"Sequence text": "HYIFPHARIKITRDSKDHTVSGNGLGIRIVGGKEIPGHSGEIGAYIAKILPGGSAEQTGKLMEGMQVLEWNGIPLTSKTYEEVQSIISQQSGEAEICVRLDLNM", "soluble on expression in E. coli": "soluble"}
{"Sequence text": "NMIKAAISRQREFLADASAVQFTRNDQGIAGALKKIGSNVQGSTLNTKASDEMSHMMFGQSKLSGFSGLFATHPPLDERIRRIEPNWDGSYAQHSHAQNTAFDNEQVSGFAVGGGSPASQSASPSEQLSETGQQLISQLPPELVDIAREPYSARFIAFALIFDGSDIQREMIKSYVPLASQSTLLPWLDYDLPLHLRFPLLELALPALKSLSEAQKISLCKVLRELSETDNQYSLAEWCVINLLEKQLLASFGFIKQHKSLKQLEESVFWLLRELAWVSHSQADKAQRAYHCALAHLGFPEVKLEPANSNWHLSRAALELLLQLKPNDRRMFVKACRLAIESDGEITVAEGEIYRVIACFLEVPEPPLTISG", "soluble on expression in E. coli": "not soluble"}
{"Sequence text": "MSQFISLTQYQLIEVQGADAEKYLQGQLTSDVVRLASGATTLTAHCDPKGKMNAIYRLFKVSSEQFFLLVKKDILPSGLDALKKYAVFSKVSFDLRDWQIIGVIGEKCGKITPNFSLEIDEKRSILLNETELPVNFNGDEKIWEVADIQAGLPNLSPQTQNEFIPQALNLQAIEQAISFTKGCYIGQETVARAKYRGANKRAMFIFKVQTQQEAEIGSEIEMQLEANWRKTGTITSAVNLDGVLWLQVVMNNDIDSEQQFRLLNSEILLERVQLPYSITELEHHHHHH", "soluble on expression in E. coli": "soluble"}
